Attribution: patent US11186592B2

Target: human A2B receptor (Homo sapiens, UniProt P29275)
Sequence (P29275 1-332): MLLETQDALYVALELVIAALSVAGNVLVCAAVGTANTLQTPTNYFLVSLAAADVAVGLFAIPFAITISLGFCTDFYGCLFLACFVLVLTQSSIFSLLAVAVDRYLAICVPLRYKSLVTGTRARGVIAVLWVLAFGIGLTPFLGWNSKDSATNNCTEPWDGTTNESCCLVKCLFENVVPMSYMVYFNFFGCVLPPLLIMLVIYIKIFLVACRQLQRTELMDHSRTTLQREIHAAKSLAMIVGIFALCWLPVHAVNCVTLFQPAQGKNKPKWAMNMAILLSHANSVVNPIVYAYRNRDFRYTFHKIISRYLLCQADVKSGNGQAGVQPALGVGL
Experiment: cAMP (HTRF) functional assay, recombinant HEK293 cells expressing human A2B receptor, agonist NECA
pIC50: −log10 of the molar value.
QUANTITY: pIC50

Specify pIC50 for COCCOc1cccc(-c2c(F)nc(OC)c3nc(NC(=O)N4CCC5(CCOCC5)C4)sc23)c1 [compound 234] and stop.
> 8.00

Note pIC50 for the compound shown: COc1ncc(C2CCOCC2)c2sc(NC(=O)c3cnc(N)s3)nc12 [compound 241]
> 8.00

Output pIC50 of COc1ncc(-c2ccc(F)cc2)c2sc(NC(=O)N3CCC4(CCOCC4)C3)nc12 [compound 193]
> 7.00

Specify pIC50 for COc1ncc(-c2cnn(C)c2)c2sc(NC(=O)N3CCC4(CCCOC4)C3)nc12 (centres unmarked) [compound 80] and stop.
> 7.00

Write down pIC50 measured for item COc1ncc(-c2ccccc2F)c2sc(NC(=O)N3CCC4(CCOCC4)C3)nc12 [compound 195]
> 7.00

Return pIC50 (reported value) for this compound: COc1ncc(C2CCOCC2)c2sc(NC(=O)c3cnc(C)s3)nc12 [compound 181]
> 7.00

Note pIC50 for the compound shown: COCCOc1cccc(-c2cnc(OC)c3nc(NC(=O)N4CCC5(CCOCC5)C4)sc23)c1 [compound 225]
> 7.00

// fetch pIC50 given entry COCc1ccc(C(=O)Nc2nc3c(OC)ncc(C4CCOCC4)c3s2)cc1 [compound 23]
> 7.00

====

Tested on: mouse Pan T cells
Test: Rescue of cytokine (IL-2, IFN-γ) secretion in CD3/CD28-stimulated mouse Pan T cells inhibited by A2A agonist CGS-21680
Format: cell-based
Settings: Mus musculus, T-cell; IL-2 rescue in supernatant after 24 h, CGS-21680 1 μM, BALB/c Pan T cells; read-out: Mouse T-Cell IL-2
Protocol: Adenosine (Ado) in tumor microenvironment can inhibit T cell activity by signaling through A2A receptors and suppress cytokine secretion by T cells. […] Briefly, mouse Pan T cells are purified from spleens of BALB/c mice using Pan T cell isolation kit Mouse II (MACS Miltenyi biotech Cat #Order no. 130-095-130) according to manufacturer's protocol. […] These percentages of cytokine rescue in a dose dependent manner of antagonist is plotted in GraphPad Prism software and IC50 is calculated.
Provide the recorded pIC50 for the entries that follow.
Convention used: pIC50 is expressed as -log10 of the molar concentration.

Tell me pIC50 reported for `COCCn1cc(C(=O)Nc2nc3c(OC)ncc(N4CCOCC4)c3s2)cn1`
7.43

Note pIC50 for the molecule shown: `COCCn1cc(C(=O)Nc2nc3c(OC)ncc(-c4cnn(C)c4)c3s2)cn1`
7.35

====

For each of the compounds below, state its IC50.
Biological target: human A2B receptor (Homo sapiens, UniProt P29275)
Test: cAMP (HTRF) functional assay, recombinant HEK293 cells expressing human A2B receptor, agonist NECA
Method: The functional activities of human A2A, A2B, A1 and A3 receptors were determined by quantification of cAMP, being the second messenger for adenosine receptors. Cells were seeded into 384-well plates, forskolin, test compounds and agonists (CPA for A1- and IB-MECA for A3-receptor) were added. After 30 min incubation, HTRF reagents (cAMP dynamic 2, Cis Bio) were added and the cellular cAMP levels were determined using the ENVISION (Perkin Elmer) plate reader. […]

Please tell me the measured IC50 for `COc1ncc(-c2cnn(C)c2)c2sc(NC(=O)N3CC[C@]4(CCCOC4)C3)nc12` ; system: human A2B receptor (Homo sapiens, UniProt P29275).
< 0.1 µM

Give human A2B receptor (Homo sapiens, UniProt P29275) IC50 for the following compound: `COc1ncc(-c2ccccc2)c2sc(NC(=O)c3cnc(C)o3)nc12`
< 0.1 µM

State, for human A2B receptor (Homo sapiens, UniProt P29275), measured IC50 of the compound listed here: `COCCn1cc(C(=O)Nc2nc3c(OC)ncc(-c4cnn(C)c4)c3s2)cn1`
< 0.1 µM

Give the observed IC50 of `COc1ncc(-c2ccccc2)c2sc(NC(=O)c3cnn(C)c3)nc12` for human A2B receptor (Homo sapiens, UniProt P29275).
< 0.01 µM

====

Give measured clearance for each item. Keep answers brief.
Test: Pharmacokinetic properties in mouse after single intravenous and oral administration
Conditions: female, plasma, iv, 0.2 mg/kg, CL, iv administration
API: value field is a number in mL/min/kg; no unit string.

Give the reported clearance for this molecule. COc1ncc(N2CCOCC2)c2sc(NC(=O)N3CCC(C)(O)CC3)nc12 [compound 1]
114

Determine from records and report clearance for COCCn1cc(C(=O)Nc2nc3c(OC)ccc(N4CCOCC4)c3s2)cn1 [Benzothiazole analogue to No. 4, reference compound]
36.3

Give the reported value of clearance for this record: COc1ccc(N2CCOCC2)c2sc(NC(=O)N3CCC(C)(O)CC3)nc12 [Tozadenant, reference compound]
145

Supply recorded clearance for COCCn1cc(C(=O)Nc2nc3c(OC)ncc(N4CCOCC4)c3s2)cn1 [compound 4] here.
26.3

====

Experiment: Pharmacokinetic properties in mouse after single intravenous and oral administration
Conditions: female, in vivo, iv, 0.2 mg/kg
Would you mind telling me the reported Cmax of each entry?

Tell us which Cmax value is on record for `COCCn1cc(C(=O)Nc2nc3c(OC)ncc(N4CCOCC4)c3s2)cn1`
1390 ng/mL

Identify the reported Cmax for the following entry. `COc1ncc(N2CCOCC2)c2sc(NC(=O)N3CCC(C)(O)CC3)nc12`
449 ng/mL

====

Target: human A2B receptor (Homo sapiens, UniProt P29275)
Assay: cAMP (HTRF) functional assay, recombinant HEK293 cells expressing human A2B receptor, agonist NECA
Can you tell me IC50 for the items I'm about to list?

For `COc1ncc(C2=CCOCC2)c2sc(NC(=O)c3cnn(C)c3)nc12` , write its IC50.
< 10 nM

Please give measured IC50 of the following entry: `COc1ncc(-c2cnn(C)c2)c2sc(NC(=O)N3CCC(C)(O)CC3)nc12`
< 100 nM

Quote IC50 reported for COc1ncc(-c2ccccc2)c2sc(NC(=O)N3CCC4(CCOC4)C3)nc12 (centres unmarked) please.
< 100 nM

Return IC50 (reported value) for this compound: `COc1ncc(-c2cnn(C)c2)c2sc(NC(=O)c3cnc(C)o3)nc12`
< 100 nM

Quick one: give measured IC50 for `COc1ncc(C2CCOCC2)c2sc(NC(=O)c3ccc(CN(C)C)cc3)nc12`
< 100 nM

====

Assay: Pharmacokinetic properties in mouse after single intravenous and oral administration
Conditions: female, plasma, iv, 0.2 mg/kg, Vss, iv administration
For each of the molecules below, state its Vd.
Please don't drop the unit; write it after the number.

Look up and state reported Vd for COCCn1cc(C(=O)Nc2nc3c(OC)ccc(N4CCOCC4)c3s2)cn1 [Benzothiazole analogue to No. 4, reference compound]
0.946 L/kg

Answer with the recorded Vd for the molecule listed here: COCCn1cc(C(=O)Nc2nc3c(OC)ncc(N4CCOCC4)c3s2)cn1 [compound 4]
0.899 L/kg

Name the recorded Vd of the item COc1ccc(N2CCOCC2)c2sc(NC(=O)N3CCC(C)(O)CC3)nc12 [Tozadenant, reference compound] in your answer.
2.03 L/kg

Give me measured Vd, please, for this molecule: COc1ncc(N2CCOCC2)c2sc(NC(=O)N3CCC(C)(O)CC3)nc12 [compound 1]
1.45 L/kg

====

Kindly supply the reported Cmax values for the records listed here.
Assay: Pharmacokinetic properties in mouse after single intravenous and oral administration
Conditions: female, plasma, iv, 0.2 mg/kg
// return numeric value only (unit: ng/mL, not printed)

Retrieve Cmax measured for COCCn1cc(C(=O)Nc2nc3c(OC)ccc(N4CCOCC4)c3s2)cn1 [Benzothiazole analogue to No. 4, reference compound] and print it.
940

Please give measured Cmax of the following entry: COc1ccc(N2CCOCC2)c2sc(NC(=O)N3CCC(C)(O)CC3)nc12 [Tozadenant, reference compound]
337

Return reported Cmax. Input compound: `COCCn1cc(C(=O)Nc2nc3c(OC)ncc(N4CCOCC4)c3s2)cn1`
1260
